Origin of values: patent US20220017572A1

- assayed_target: human furin (Homo sapiens)
- Sequence (P09958 108-794): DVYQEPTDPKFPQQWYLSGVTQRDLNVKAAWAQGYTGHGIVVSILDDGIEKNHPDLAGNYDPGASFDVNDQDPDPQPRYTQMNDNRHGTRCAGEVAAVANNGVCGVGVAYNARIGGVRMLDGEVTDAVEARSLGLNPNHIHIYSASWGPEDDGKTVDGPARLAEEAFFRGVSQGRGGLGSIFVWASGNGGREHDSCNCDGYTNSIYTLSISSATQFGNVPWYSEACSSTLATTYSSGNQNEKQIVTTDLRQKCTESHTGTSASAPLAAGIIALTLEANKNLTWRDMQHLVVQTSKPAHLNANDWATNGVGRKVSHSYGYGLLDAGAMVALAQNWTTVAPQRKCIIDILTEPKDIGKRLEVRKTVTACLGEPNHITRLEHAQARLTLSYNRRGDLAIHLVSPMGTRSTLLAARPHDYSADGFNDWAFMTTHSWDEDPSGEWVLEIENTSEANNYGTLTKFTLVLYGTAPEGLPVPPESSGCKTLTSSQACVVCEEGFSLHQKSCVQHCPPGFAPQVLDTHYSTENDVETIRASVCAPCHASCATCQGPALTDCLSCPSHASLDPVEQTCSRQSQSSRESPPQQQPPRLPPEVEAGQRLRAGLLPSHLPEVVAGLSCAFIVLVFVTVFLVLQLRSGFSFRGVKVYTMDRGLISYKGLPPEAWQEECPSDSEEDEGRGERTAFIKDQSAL
- experimental_protocol: Human furin inhibition, hydrolysis of Ac-RVRR-MCA
- Format: biochemical
- condition_parameters: 5 μM inhibitor, 36.5° C.
Residues, ends and D or L forms follow the SMILES beside them.
# label = condition met if activity at 5 µM >= 60% else condition not met

compound	answer_label
CCCCCCCCCCCCCCCCNC(=O)[C@H](CCCCN)NC(=O)CNC(=O)[C@H](CCCCN)NC(=O)CCCCCCCCCCCCCCC [C16-KGK-C16, C15H31CO-KGK-NH—C16H33]	condition not met
CCCCCCCCCCCCCCCCNC(=O)[C@H](CCCCN)NC(=O)[C@H](C)NC(=O)[C@H](C)NC(=O)[C@H](C)NC(=O)[C@H](CCCCN)NC(=O)CCCCCCCCCCCCCCC [C16-KAAAK-C16] (HELM PEPTIDE1{[CCCCCCCCCCCCCCCC(=O)[*:2]].K.A.A.A.K.[CCCCCCCCCCCCCCCCN[*:1]]}$$$$V2.0)	condition not met
CCCCCCCCCCCCCCCCNC(=O)[C@H](CCCCN)NC(=O)CNC(=O)CNC(=O)CNC(=O)CNC(=O)[C@H](CCCCN)NC(=O)CCCCCCCCCCCCCCC [C16KG4KC16] (HELM PEPTIDE1{[CCCCCCCCCCCCCCCC(=O)[*:2]].K.G.G.G.G.K.[CCCCCCCCCCCCCCCCN[*:1]]}$$$$V2.0)	condition met
CCCCCCCCCCCCCCCCNC(=O)[C@H](CCCCN)NC(=O)CNC(=O)CNC(=O)CNC(=O)[C@H](CCCCN)NC(=O)CCCCCCCCCCCCCCC [C16-KGGGK-C16, C15H31CO-KGGGK-NH—C16H33] (HELM PEPTIDE1{[CCCCCCCCCCCCCCCC(=O)[*:2]].K.G.G.G.K.[CCCCCCCCCCCCCCCCN[*:1]]}$$$$V2.0)	condition met
CCCCCCCCCCCCCCCCNC(=O)[C@H](CCCCN)NC(=O)CNC(=O)CNC(=O)[C@H](CCCCN)NC(=O)CCCCCCCCCCCCCCC [C16-KGGK-C16, C15H31CO-KGGK-NH—C16H33] (HELM PEPTIDE1{[CCCCCCCCCCCCCCCC(=O)[*:2]].K.G.G.K.[CCCCCCCCCCCCCCCCN[*:1]]}$$$$V2.0)	condition met
CCCCCCCCCCCCCCCCNC(=O)[C@H](CCCCN)NC(=O)[C@H](C)NC(=O)[C@H](CCCCN)NC(=O)CCCCCCCCCCCCCCC	condition not met
CCCCCCCCCCCCCCCCNC(=O)[C@H](CCCCN)NC(=O)[C@H](C)NC(=O)[C@H](C)NC(=O)[C@H](CCCCN)NC(=O)CCCCCCCCCCCCCCC [C16-KAAK-C16] (HELM PEPTIDE1{[CCCCCCCCCCCCCCCC(=O)[*:2]].K.A.A.K.[CCCCCCCCCCCCCCCCN[*:1]]}$$$$V2.0)	condition met

----------
- assayed_target: dengue 2 protease (Dengue virus type 2)
- Construct: The active site of the dengue protease is in the N-terminal part of NS3
- Sequence (P14340 1476-1653): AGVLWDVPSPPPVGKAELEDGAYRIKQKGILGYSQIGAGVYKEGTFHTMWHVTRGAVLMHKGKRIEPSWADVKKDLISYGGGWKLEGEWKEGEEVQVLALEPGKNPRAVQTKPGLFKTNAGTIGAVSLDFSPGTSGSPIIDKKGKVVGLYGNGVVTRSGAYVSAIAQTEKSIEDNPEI
- experimental_protocol: Dengue 2 protease inhibition, hydrolysis of Z-RR-MCA
- Assay type: biochemical, dengue 2 virus
- condition_parameters: 40 μM inhibitor, 36.5° C.
Residues, ends and D or L forms follow the SMILES beside them.
Listed compounds paired with reported activity at 40 µM
assay_readout: activity at 40 µM

compound	value_reported
CCCCCCCCCCCCCCCCNC(=O)[C@H](CCCCN)NC(=O)[C@H](C)NC(=O)[C@H](C)NC(=O)[C@H](CCCCN)NC(=O)CCCCCCCCCCCCCCC [C16-KAAK-C16] (HELM PEPTIDE1{[CCCCCCCCCCCCCCCC(=O)[*:2]].K.A.A.K.[CCCCCCCCCCCCCCCCN[*:1]]}$$$$V2.0)	10%
CCCCCCCCCCCCCCCCNC(=O)[C@H](CCCCN)NC(=O)CNC(=O)CNC(=O)CNC(=O)CNC(=O)[C@H](CCCCN)NC(=O)CCCCCCCCCCCCCCC [C16KG4KC16] (HELM PEPTIDE1{[CCCCCCCCCCCCCCCC(=O)[*:2]].K.G.G.G.G.K.[CCCCCCCCCCCCCCCCN[*:1]]}$$$$V2.0)	45%
CCCCCCCCCCCCCCCCNC(=O)[C@H](CCCCN)NC(=O)CNC(=O)CNC(=O)CNC(=O)[C@H](CCCCN)NC(=O)CCCCCCCCCCCCCCC [C16-KGGGK-C16, C15H31CO-KGGGK-NH—C16H33] (HELM PEPTIDE1{[CCCCCCCCCCCCCCCC(=O)[*:2]].K.G.G.G.K.[CCCCCCCCCCCCCCCCN[*:1]]}$$$$V2.0)	51%

----------
- assayed_target: trypsin (Bos taurus)
- Construct: gene PRSS1
- Sequence (P00760 24-246): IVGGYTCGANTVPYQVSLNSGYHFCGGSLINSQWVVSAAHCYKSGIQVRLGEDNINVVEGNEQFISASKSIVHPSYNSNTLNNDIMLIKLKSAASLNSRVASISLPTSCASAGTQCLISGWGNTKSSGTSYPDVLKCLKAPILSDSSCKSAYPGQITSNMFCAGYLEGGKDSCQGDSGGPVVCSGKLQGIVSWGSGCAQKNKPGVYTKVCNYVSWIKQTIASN
- experimental_protocol: Trypsin inhibition, fluorimetric enzyme assay
- Type: biochemical
- condition_parameters: 15 μM inhibitor, 36.5° C.; read-out: Residual Activity (%) Trypsin
- Protocol: The enzyme was dissolved in 1 mL MES buffer (10 mM), 1 mM CaCl2, pH 7.0 at 36.5° C. […] The residual activity was measured in a Hitachi F2500 spectrofluorimeter, and plots were fitted using the Grafit® software (Erithracus Software, Horley, Surrey, UK). All the assays were calculated by the Morrison equation for competitive inhibition (eq. 1, [Morrison, 1969]). […]
Residues, ends and D or L forms follow the SMILES beside them.
Lab note: anything with remaining activity at 15 µM below 70% is marked TRUE; values at 70% or higher are marked FALSE.

compound	answer_label
CCCCCCCCCCCCCCCCNC(=O)[C@H](CCCCN)NC(=O)[C@H](C)NC(=O)[C@H](C)NC(=O)[C@H](CCCCN)NC(=O)CCCCCCCCCCCCCCC [C16-KAAK-C16] (HELM PEPTIDE1{[CCCCCCCCCCCCCCCC(=O)[*:2]].K.A.A.K.[CCCCCCCCCCCCCCCCN[*:1]]}$$$$V2.0)	TRUE
CCCCCCCCCCCCCCCCNC(=O)[C@H](CCCCN)NC(=O)CNC(=O)[C@H](CCCCN)NC(=O)CCCCCCCCCCCCCCC [C16-KGK-C16, C15H31CO-KGK-NH—C16H33]	FALSE
CCCCCCCCCCCCCCCCNC(=O)[C@H](CCCCN)NC(=O)[C@H](C)NC(=O)[C@H](C)NC(=O)[C@H](C)NC(=O)[C@H](CCCCN)NC(=O)CCCCCCCCCCCCCCC [C16-KAAAK-C16] (HELM PEPTIDE1{[CCCCCCCCCCCCCCCC(=O)[*:2]].K.A.A.A.K.[CCCCCCCCCCCCCCCCN[*:1]]}$$$$V2.0)	FALSE
CCCCCCCCCCCCCCCCNC(=O)[C@H](CCCCN)NC(=O)[C@H](C)NC(=O)[C@H](C)NC(=O)[C@H](C)NC(=O)[C@H](C)NC(=O)[C@H](CCCCN)NC(=O)CCCCCCCCCCCCCCC [C16-KAAAAK-C16] (HELM PEPTIDE1{[CCCCCCCCCCCCCCCC(=O)[*:2]].K.A.A.A.A.K.[CCCCCCCCCCCCCCCCN[*:1]]}$$$$V2.0)	FALSE
CCCCCCCCCCCCCCCCNC(=O)[C@H](CCCCN)NC(=O)[C@H](CCCCN)NC(=O)CCCCCCCCCCCCCCC [C16-KK-C16, C15H31CO-KK-NH—C16H33]	FALSE

----------
Listed compounds paired with reported activity at 2.5 µM
- assayed_target: human furin (Homo sapiens)
- experimental_protocol: Human furin inhibition, hydrolysis of Ac-RVRR-MCA
- Assay type: biochemical
- condition_parameters: 2.5 μM inhibitor, 36.5° C.
Residues, ends and D or L forms follow the SMILES beside them.
assay_readout: activity at 2.5 µM (%)

compound	assay_readout	value_reported
CCCCCCCCCCCCCCCCNC(=O)[C@H](CCCCN)NC(=O)[C@H](C)NC(=O)[C@H](C)NC(=O)[C@H](C)NC(=O)[C@H](CCCCN)NC(=O)CCCCCCCCCCCCCCC [C16-KAAAK-C16] (HELM PEPTIDE1{[CCCCCCCCCCCCCCCC(=O)[*:2]].K.A.A.A.K.[CCCCCCCCCCCCCCCCN[*:1]]}$$$$V2.0)	activity at 2.5 µM	73
CCCCCCCCCCCCCCCCNC(=O)[C@H](CCCCN)NC(=O)[C@H](C)NC(=O)[C@H](C)NC(=O)[C@H](CCCCN)NC(=O)CCCCCCCCCCCCCCC [C16-KAAK-C16] (HELM PEPTIDE1{[CCCCCCCCCCCCCCCC(=O)[*:2]].K.A.A.K.[CCCCCCCCCCCCCCCCN[*:1]]}$$$$V2.0)	activity at 2.5 µM	94
CCCCCCCCCCCCCCCCNC(=O)[C@H](CCCCN)NC(=O)[C@H](C)NC(=O)[C@H](C)NC(=O)[C@H](C)NC(=O)[C@H](C)NC(=O)[C@H](CCCCN)NC(=O)CCCCCCCCCCCCCCC [C16-KAAAAK-C16] (HELM PEPTIDE1{[CCCCCCCCCCCCCCCC(=O)[*:2]].K.A.A.A.A.K.[CCCCCCCCCCCCCCCCN[*:1]]}$$$$V2.0)	activity at 2.5 µM	70
CCCCCCCCCCCCCCCCNC(=O)[C@H](CCCCN)NC(=O)[C@H](C)NC(=O)[C@H](CCCCN)NC(=O)CCCCCCCCCCCCCCC	activity at 2.5 µM	43
